assay: Two-photon absorption cross-sectional area, Z scan method, Examples B; type: physicochemical; settings: tetrahydrofuran solution, femtosecond laser, 780 nm to 960 nm (710 nm to 990 nm)
// reported Two-photon absorption cross-sectional area per item
Unit GM implied. Number only.

Here's what some known entries look like.
compound	value-unit	value-reported
CCC1=C(C)c2nc1cc1[nH]c(c(C)c1CC)c(-c1ccccc1C(F)(F)F)c1nc(c(-c3ccc4c(c3)C(C)(C)c3cc(-c5c6nc(c(-c7ccccc7C(F)(F)F)c7[nH]c(cc8nc(c(-c9ccccc9C(F)(F)F)c9[nH]c5c(CC)c9C)C(C)=C8CC)c(CC)c7C)C(C)=C6CC)ccc3-4)c3[nH]c(c(C)c3CC)c2-c2ccccc2C(F)(F)F)C(CC)=C1C [(39)]	GM	890
CCCCCCc1ccc(N(c2ccc(C3=C4N=C(C(C)=C4CC)C(c4c(C)cc(C)cc4C)=c4c(C)c(CC)c5[n]4[Cu][n]4c(c(C)c(CC)c43)C(c3c(C)cc(C)cc3C)=C3N=C(C=5)C(CC)=C3C)cc2)c2ccc(C3=c4c(CC)c(C)c5[n]4[Cu][n]4c(c(CC)c(C)c4C(c4c(C)cc(C)cc4C)=C4N=C3C(CC)=C4C)C=C3N=C(C(C)=C3CC)C=5c3c(C)cc(C)cc3C)cc2)cc1 [(66)]	GM	820
CCCCCCc1ccc(N(c2ccc(C3=C4C=CC(=N4)C(c4ccccc4C)=c4ccc5[n]4[Pd][n]4c3ccc4C(c3ccccc3C)=C3C=CC(=N3)C=5c3ccc(/C=C/c4ccc(N(c5ccccc5)c5ccccc5)cc4)cc3)cc2)c2ccc(C3=c4ccc5[n]4[Pd][n]4c(ccc4C(c4ccccc4C)=C4C=CC3=N4)C=C3C=CC(=N3)C=5c3ccccc3C)cc2)cc1 [(31)]	GM	890

-- ask Query: Two-photon absorption cross-sectional area; subject: CC1=C(C)c2nc1c(-c1ccc(C#N)cc1)c1[nH]c(c(C)c1C)c(-c1ccc(/C=C/c3ccc(N(c4ccccc4)c4ccc(C)cc4)cc3)cc1)c1nc(c(-c3ccc(C#N)cc3)c3[nH]c(c(C)c3C)c2-c2ccc(/C=C/c3ccc(N(c4ccccc4)c4ccc(C)cc4)cc3)cc2)C(C)=C1C [(5)]
-- reply 980

-- ask Query (compound): CCCCCCc1ccc(N(c2ccc(C3=C4N=C(C(C)=C4CC)C(c4c(C)cc(C)cc4C)=c4c(C)c(CC)c5[n]4[Ni][n]4c(c(C)c(CC)c43)C(c3c(C)cc(C)cc3C)=C3N=C(C=5)C(CC)=C3C)cc2)c2ccc(C3=c4c(CC)c(C)c5[n]4[Ni][n]4c(c(CC)c(C)c4C(c4c(C)cc(C)cc4C)=C4N=C3C(CC)=C4C)C=C3N=C(C(C)=C3CC)C=5c3c(C)cc(C)cc3C)cc2)cc1 [(63)] ; field requested: Two-photon absorption cross-sectional area
-- reply 900
